System: NKG2A−/NKG2C+ NK cells
Experiment: NK cell activation markers in NKG2A-/NKG2C+ NK cells incubated with peptide and K562 expressing HLA-E (activation)
Type: cell-based, human
Details: NKG2A-/NKG2C+ NK cells, K562/HLA-E, Trial 6
Where no end group is shown, it is not given here.
reported-endpoint: percentage of CD107+ NK cells

TAPARTMFL [human13, TAPARTMFL]: 29.1%
VNPGRSLFL [human5, VNPGRSLFL]: 46.8%
TLPERTLYL [human7, peptide ECEL1 269-277 derived from the human proteome]: 55.3%
VMAPQSLLL [VMAPQSLLL (PQS), negative control peptide, reference compound]: 22.3%

Q. Please state recorded percentage of CD107+ NK cells (tested on NKG2A−/NKG2C+ NK cells) of VMPPRTLLL [human15, peptide HLA-A 3-11 derived from the human proteome]
A. 56.2%

Q. Enter reported percentage of CD107+ NK cells observed with NKG2A−/NKG2C+ NK cells for VMPGRTLCF [human11, peptide TACR3 226-234 derived from the human proteome]
A. 42.5%

Q. Form field - read-out: percentage of CD107+ NK cells; system: NKG2A−/NKG2C+ NK cells; submitted item: ILTDRSLWL [human4, peptide FBXO41 670-678 derived from the human proteome]
A. 64.2%

Q. API: value(readout= percentage of CD107+ NK cells, system= NKG2A−/NKG2C+ NK cells, query= NMPARTVLF [human14, peptide MTREX 490-498 derived from the human proteome] )
A. 44.3%

---

System: NKG2A+/NKG2C− NK cells
Experiment: NK cell activation markers in NKG2A+/NKG2C- NK cells incubated with peptide and K562 expressing HLA-E (inhibition)
Assay type: cell-based, human
Conditions: NKG2A+/NKG2C- NK cells, K562/HLA-E, Trial 4
Where no end group is shown, it is not given here.
Listed below: percentage of IFNG+ NK cells values for each entry.
Report the figure in % without appending any unit label.

These solved cases illustrate the format of a correct answer.
TLPKRGLFL [human2, TLPKRGLFL]: 2.41
TLPERTLYL [human7, peptide ECEL1 269-277 derived from the human proteome]: 0.16

Q. // query percentage of IFNG+ NK cells value for entry VNPGRSLFL [human5, VNPGRSLFL]
A. 17.9

Q. # query: percentage of IFNG+ NK cells of entry VLPHRTQFL [CMV1, novel CMV-derived peptide UL120 72-80, Merlin]
A. 0.93

Q. Field request: percentage of IFNG+ NK cells | item: ILTDRSLWL [human4, peptide FBXO41 670-678 derived from the human proteome]
A. 3.31

Q. # lookup: percentage of IFNG+ NK cells of TGPWRSLWI [human3, TGPWRSLWI]
A. 20.1

---

Measured Binding of peptide-HLA-E complexes to CD94/NKG2A normalized to a theoretical Rmax accompanies every entry in the list below.
Molecular target: CD94/NKG2A (Homo sapiens, UniProt P26715+Q13241)
Sequence (P26715 94-233 limits assumed): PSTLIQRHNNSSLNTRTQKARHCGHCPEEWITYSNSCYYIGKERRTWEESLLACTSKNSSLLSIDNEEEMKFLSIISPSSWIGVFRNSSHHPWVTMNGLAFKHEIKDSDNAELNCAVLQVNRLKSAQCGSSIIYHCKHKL
Sequence (Q13241 32-179 limits assumed): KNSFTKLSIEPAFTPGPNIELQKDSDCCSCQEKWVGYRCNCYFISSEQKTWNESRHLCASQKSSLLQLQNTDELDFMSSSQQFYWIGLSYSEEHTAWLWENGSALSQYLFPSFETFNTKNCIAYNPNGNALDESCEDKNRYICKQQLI
Assay: Steady-state surface plasmon resonance of peptide-HLA-E complex with CD94/NKG2A
Type: binding
Details: steady-state SPR; CD94/NKG2A analyte concentration 1.600 μM
Where no end group is shown, it is not given here.
Respond with the number and no other words.

Some entries whose results are on file:
TLPKRGLFL [human2, TLPKRGLFL]: 0.221
TGPWRSLWI [human3, TGPWRSLWI]: 0.026
VNPGRSLFL [human5, VNPGRSLFL]: 0.308
QMPSRSLLF [human1, QMPSRSLLF]: 0.252

// moving on: another record for Binding of peptide-HLA-E complexes to CD94/NKG2A normalized to a theoretical Rmax
Q. So what does the record say about Binding of peptide-HLA-E complexes to CD94/NKG2A normalized to a theoretical Rmax for TAPARTMFL [human13, TAPARTMFL] ?
A. 0.122

---

Biological target: CD94/NKG2C (Homo sapiens, UniProt P26717+Q13241)
Sequence (P26717 94-231 limits assumed): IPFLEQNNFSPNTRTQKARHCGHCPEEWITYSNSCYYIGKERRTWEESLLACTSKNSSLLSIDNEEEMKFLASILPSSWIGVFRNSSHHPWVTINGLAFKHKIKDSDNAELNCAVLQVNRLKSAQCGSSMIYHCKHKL
Sequence (Q13241 32-179 limits assumed): as the sequence (Q13241 32-179 limits assumed) above
Assay: Steady-state surface plasmon resonance of peptide-HLA-E complex with CD94/NKG2C
Format: binding
Conditions: CD94/NKG2C concentration 0.1 μM
Where no end group is shown, it is not given here.
reported-endpoint: binding of peptide-HLA-E complex to CD94/NKG2C normalized to a fitted Rmax

Example sequences with recorded binding of peptide-HLA-E complex to CD94/NKG2C normalized to a fitted Rmax:
QMPSRSLLF [human1, QMPSRSLLF]: 0.007
VNPGRSLFL [human5, VNPGRSLFL]: 0.064
TAPARTMFL [human13, TAPARTMFL]: 0.017
TGPWRSLWI [human3, TGPWRSLWI]: 0.008

Q. Consider the sequence shown here: TLPKRGLFL [human2, TLPKRGLFL] What is its recorded binding of peptide-HLA-E complex to CD94/NKG2C normalized to a fitted Rmax?
A. 0.003

---

Target: CD94/NKG2A (Homo sapiens, UniProt P26715+Q13241)
Assay: Steady-state surface plasmon resonance of peptide-HLA-E complex with CD94/NKG2A
Type: binding
Conditions: CD94/NKG2A concentration 3.2 μM
Where no end group is shown, it is not given here.
reported-endpoint: binding of peptide-HLA-E complex to CD94/NKG2A normalized to a fitted Rmax
Note: the reply should be a number with no unit written.

QMPSRSLLF [human1, QMPSRSLLF]: 0.506

Q. What measured binding of peptide-HLA-E complex to CD94/NKG2A normalized to a fitted Rmax goes with TGPWRSLWI [human3, TGPWRSLWI] ?
A. 0.145

Q. Which binding of peptide-HLA-E complex to CD94/NKG2A normalized to a fitted Rmax reading was recorded for the sequence TLPKRGLFL [human2, TLPKRGLFL] ?
A. 0.450

Q. Query (sequence): TAPARTMFL [human13, TAPARTMFL] ; field requested: binding of peptide-HLA-E complex to CD94/NKG2A normalized to a fitted Rmax
A. 0.302

Q. Give the measured binding of peptide-HLA-E complex to CD94/NKG2A normalized to a fitted Rmax of VNPGRSLFL [human5, VNPGRSLFL] .
A. 0.863

---

# Binding of peptide-HLA-E complexes to CD94/NKG2C normalized to a theoretical Rmax per record follows
Target: CD94/NKG2C (Homo sapiens, UniProt P26717+Q13241)
Assay: Steady-state surface plasmon resonance of peptide-HLA-E complex with CD94/NKG2C
Assay type: binding
Conditions: steady-state SPR; CD94/NKG2C analyte concentration 6.4 μM
Where no end group is shown, it is not given here.
Respond with the number and no other words.

Check out these entries, answers already filled in.
TAPARTMFL [human13, TAPARTMFL]: 0.234
QMPSRSLLF [human1, QMPSRSLLF]: 0.242

Q. Need Binding of peptide-HLA-E complexes to CD94/NKG2C normalized to a theoretical Rmax of TLPKRGLFL [human2, TLPKRGLFL] , thanks.
A. 0.207

Q. # query: Binding of peptide-HLA-E complexes to CD94/NKG2C normalized to a theoretical Rmax of entry TGPWRSLWI [human3, TGPWRSLWI]
A. 0.030

Q. Need Binding of peptide-HLA-E complexes to CD94/NKG2C normalized to a theoretical Rmax, item VNPGRSLFL [human5, VNPGRSLFL]
A. 0.294

---

Biological target: HLA-E (Homo sapiens)
Construct: expressed in transfected cells; host or cells: RMA-S/HLA-E cells (antigen processing-defective lymphoma cell line)
Sequence (P13747 22-358): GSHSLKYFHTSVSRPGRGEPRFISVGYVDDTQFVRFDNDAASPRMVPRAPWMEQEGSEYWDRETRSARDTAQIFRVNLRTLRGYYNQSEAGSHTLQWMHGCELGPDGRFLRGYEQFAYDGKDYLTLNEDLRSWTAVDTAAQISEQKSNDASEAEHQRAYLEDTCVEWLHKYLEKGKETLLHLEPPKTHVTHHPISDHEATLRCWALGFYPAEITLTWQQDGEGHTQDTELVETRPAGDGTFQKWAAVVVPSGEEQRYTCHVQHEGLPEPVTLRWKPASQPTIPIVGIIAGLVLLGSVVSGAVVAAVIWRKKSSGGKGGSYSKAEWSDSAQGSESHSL
Sequence (P61769 21-119 partner): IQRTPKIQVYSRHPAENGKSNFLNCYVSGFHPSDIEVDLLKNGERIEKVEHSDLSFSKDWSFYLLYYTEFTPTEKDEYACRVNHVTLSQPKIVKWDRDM
Test: HLA-E surface stabilization assay with RMA-S/HLA-E cells
Format: cell-based
Settings: 30 μM peptide, 16 hours, anti-HLA-E antibody, Trial 1
Where no end group is shown, it is not given here.
reported-endpoint: HLA-E surface expression stability (GeoMFI)
Field note: include the unit after the figure.

Use these answered entries as a reference point.
VMPPRTLLL [human15, peptide HLA-A 3-11 derived from the human proteome]: 3783 GeoMFI
TLPERTLYL [human7, peptide ECEL1 269-277 derived from the human proteome]: 3203 GeoMFI
VNPGRSLFL [human5, VNPGRSLFL]: 569 GeoMFI
VMPGRTLCF [human11, peptide TACR3 226-234 derived from the human proteome]: 3152 GeoMFI
RMPPRSVLL [human12]: 3779 GeoMFI

Q. So what's the measured HLA-E surface expression stability (GeoMFI) for this one? ILTDRSLWL [human4, peptide FBXO41 670-678 derived from the human proteome]
A. 1174 GeoMFI

Q. Item TAPARTMFL [human13, TAPARTMFL] has what recorded HLA-E surface expression stability (GeoMFI)?
A. 851 GeoMFI

Q. Would you mind telling me what HLA-E surface expression stability (GeoMFI) value was observed for VLPHRTQFL [CMV1, novel CMV-derived peptide UL120 72-80, Merlin] ?
A. 2140 GeoMFI

Q. Would you kindly share the measured HLA-E surface expression stability (GeoMFI) for TGPWRSLWI [human3, TGPWRSLWI] ?
A. 510 GeoMFI

Q. Which value of HLA-E surface expression stability (GeoMFI) has been reported for TLPKRGLFL [human2, TLPKRGLFL] in the records?
A. 2019 GeoMFI
